Target: Type II 5α-Reductase from Human Prostate (Homo sapiens)
Construct: The same procedure as above was used for preparations using tissue from prostate surgery; from tissue; host or cells: human prostate tissue from surgery, homogenate, 100,000×g pellet
Sequence (P31213 whole entry): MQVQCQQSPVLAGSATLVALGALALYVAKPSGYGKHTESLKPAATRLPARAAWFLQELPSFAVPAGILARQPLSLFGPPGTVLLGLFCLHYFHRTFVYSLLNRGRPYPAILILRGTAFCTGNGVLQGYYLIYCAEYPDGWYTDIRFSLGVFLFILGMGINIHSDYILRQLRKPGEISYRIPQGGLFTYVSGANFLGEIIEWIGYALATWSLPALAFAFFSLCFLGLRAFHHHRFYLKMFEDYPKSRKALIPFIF
Assay: Human Type II 5α-reductase assay (conversion of [3H]-testosterone to 5α-reduced metabolites)
Type: biochemical
Conditions: pH 5.5, 0.3 μM; sodium acetate pH 5.5, 25°, 30 min; compared to control reaction mixtures; read-out: percent inhibition of Type II AR
PARAMETER_MEASURED: inhibition at 0.3 µM (%)

I = CN1C(=O)CC[C@]2(C)c3ccc(-c4ccc(O)c(Cl)c4)cc3CC[C@@H]12 [Example 25]
II = CN1C(=O)CC[C@]2(C)c3ccc(-c4ccc(OC(F)(F)F)cc4)cc3CC[C@@H]12 [Example 78]
III = CN1C(=O)CC[C@]2(C)c3ccc(Sc4ccc5ccccc5c4)cc3CC[C@@H]12 [Example 98]
IV = CN1C(=O)CC[C@]2(C)c3ccc(-c4cc(Cl)cc(Cl)c4)cc3CC[C@@H]12 [Example 52]
Arrange the above in rising order of inhibition at 0.3 µM. Please reply with the labels ordered as requested. Many thanks.
II, IV, I, III
(II: 3%, IV: 10%, I: 31%, III: 61%)

1 = CN1C(=O)CC[C@]2(C)c3ccc(-c4cc(C(F)(F)F)cc(C(F)(F)F)c4)cc3CC[C@@H]12 [Example 87]
2 = CN1C(=O)CC[C@]2(C)c3ccc(-c4cccc(C(=O)NC5CCN(Cc6ccccc6)CC5)c4)cc3CC[C@@H]12 [Example 209]
When the recorded inhibition at 0.3 µM values are compared, which is smaller: that of 1 or that of 2 ? In your reply, give the label of the chosen option.
2
(2: 11%, 1: 28%)

A = CN(C)CCN1C(=O)c2cccc3c(-c4ccc5c(c4)CC[C@H]4N(C)C(=O)CC[C@]54C)ccc(c23)C1=O [Example 224]
B = CN1C(=O)CC[C@]2(C)c3ccc(-c4c(F)cccc4F)cc3CC[C@@H]12 [Example 228]
When the recorded inhibition at 0.3 µM values are compared, which is smaller: that of A or that of B ? In your reply, give the label of the chosen option.
A
(A: 20%, B: 32%)
